B1: library; a variant is named by its letters at N, in order (parent)
chain: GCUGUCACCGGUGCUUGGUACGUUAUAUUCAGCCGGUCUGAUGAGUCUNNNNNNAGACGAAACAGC

Variants of: B1
Assay: FACS-Seq fitted mean relative fluorescence mCherry/BFP without ligand (log10 relative fluorescence); HEK293T overexpressing SLC46A1; higher = higher reporter protein expression
Conditions: without (6R,S)-folinic acid; ligand present: no
Readings of FACS-Seq fitted mean (log10) for the listed variants
Keep the answer to the number alone.

| var | reported-value |
| --- | --- |
| AAUGGU | 0.406 |
| AUAACA | 0.394 |

Proceeding to the next variant to report its FACS-Seq fitted mean (log10).
Fill blank: measured FACS-Seq fitted mean (log10) of the variant AAAAUA is ____.
0.397
